Where do these numbers come from? They come from patent US9334264B2.

# collection of pIC50 values tested on UniProtKB P43490
pIC50: −log10 of the molar value.
Outcome measure: pIC50

1. COCCC(=O)N(CC(=O)N1CCCC1)c1ncc(C(=O)NCCCn2ccnc2)s1 [Example 202]
9.39
2. O=C(NCCCn1ccnc1)c1cnc(N(CCc2ccc(Cl)cn2)C(=O)C2CCOC2)s1 (stereo not drawn) [Example 208]
9.60
3. CC(C)CCN(C(=O)C1CCOC1)c1ncc(C(=O)NCCCn2ccnc2)s1 (stereo not drawn) [Example 155]
9.60
4. COCCC(=O)N(CCN1CCOC1=O)c1ncc(C(=O)NCCCn2ccnc2)s1 [Example 198]
9.20
5. O=C(NCCCn1ccnc1)c1cnc(N(Cc2ccc(F)cc2)Cc2ccccc2Cl)s1 [Example 16]
6.66
6. CC(C)CNC(=O)N(Cc1ccc(F)cc1)c1ncc(C(=O)NCCCn2ccnc2)s1 [Example 64]
8.53
7. CC(C)CCN(C(=O)C(C)c1ccccc1)c1ncc(C(=O)NCCCn2ccnc2)s1 (stereo not drawn) [Example 138]
9.27
8. O=C(NCCCn1ccnc1)c1cnc(N(Cc2ccc(F)cc2)C(=O)C[n+]2ccccc2)s1 [Example 44]
8.11
9. O=C(NCCCn1ccnc1)c1cnc(N(Cc2ccc(F)cc2)C(=O)NCC2CCCCO2)s1 (stereo not drawn) [Example 81]
8.75

* * *

These compounds were tested on NAMPT (Homo sapiens, UniProt P43490); pIC50 is the recorded read-out.
Sequence (P43490 whole entry): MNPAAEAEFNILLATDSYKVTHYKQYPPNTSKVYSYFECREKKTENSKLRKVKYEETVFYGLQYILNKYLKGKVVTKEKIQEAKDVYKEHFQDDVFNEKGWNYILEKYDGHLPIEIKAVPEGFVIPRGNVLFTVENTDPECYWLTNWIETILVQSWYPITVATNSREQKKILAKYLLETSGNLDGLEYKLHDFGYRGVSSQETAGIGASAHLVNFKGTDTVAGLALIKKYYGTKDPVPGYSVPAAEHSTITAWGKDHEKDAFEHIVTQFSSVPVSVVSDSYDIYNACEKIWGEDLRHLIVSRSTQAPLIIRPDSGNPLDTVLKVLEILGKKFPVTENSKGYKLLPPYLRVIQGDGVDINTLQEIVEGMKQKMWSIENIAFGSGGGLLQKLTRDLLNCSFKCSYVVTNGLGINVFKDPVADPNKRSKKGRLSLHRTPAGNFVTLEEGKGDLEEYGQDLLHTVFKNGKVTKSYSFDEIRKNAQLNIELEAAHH
pIC50: −log10 of the molar value.
Outcome measure: pIC50

1) COC1CCN(C(=O)N(Cc2ccc(F)cc2)c2ncc(C(=O)NCCCn3ccnc3)s2)C1 (centres unmarked)
8.33
2) CC(C)OCCNC(=O)N(Cc1ccc(C#N)cc1)c1ncc(C(=O)NCCCn2ccnc2)s1
9.20
3) CC(C)CCN(Cc1ccc(C#N)cc1)c1ncc(C(=O)NCCCn2ccnc2)s1
8.30
4) O=C(NCCCn1ccnc1)c1cnc(N(Cc2ccc(F)cc2)C(=O)CN2CCN(CC3CC3)CC2)s1
9.30
5) CC(C)NC(=O)CN(Cc1ccc(F)cc1)c1ncc(C(=O)NCCCn2ccnc2)s1
4.90
6) CN(C)C(=O)CN(Cc1ccc(F)cc1)c1ncc(C(=O)NCCCn2ccnc2)s1
4.90
7) N#Cc1ccc(CN(C(=O)NCCCO)c2ncc(C(=O)NCCCn3ccnc3)s2)cc1
8.95
8) O=C(NCCCn1ccnc1)c1cnc(N(Cc2ccc(F)cc2)Cc2cc(Cl)ccc2Cl)s1
5.91
9) O=C(NCCCn1ccnc1)c1cnc(N(Cc2ccc(F)cc2)C(=O)CN2CCC3(C2)OCCO3)s1
9.15
10) COCCC(=O)N(Cc1cocn1)c1ncc(C(=O)NCCCn2ccnc2)s1
7.82
11) CN(C)C1CCN(CC(=O)N(Cc2ccc(F)cc2)c2ncc(C(=O)NCCCn3ccnc3)s2)C1 (centres unmarked)
9.03
12) COCCN(C(=O)Cc1ccc2ccccc2c1)c1ncc(C(=O)NCCCn2ccnc2)s1
9.32
13) O=C(NCCCn1ccnc1)c1cnc(N(Cc2ccc(F)cc2)C(=O)CN2CCOCC2)s1
8.70
14) COCCC(=O)N(Cc1scnc1C)c1ncc(C(=O)NCCCn2ccnc2)s1
8.82
15) Cc1cn(CCCNC(=O)c2cnc(N(Cc3ccc(F)cc3)C(=O)CC(C)C)s2)cn1
8.25
16) O=C(NCCCn1ccnc1)c1cnc(N(CCCN2CCOCC2)Cc2ccc(F)cc2)s1
6.31
17) N#Cc1ccc(CN(C(=O)NCCOCCO)c2ncc(C(=O)NCCCn3ccnc3)s2)cc1
9.15
